target: human MCH-1 receptor (Homo sapiens (Human), UniProt Q99705); experiment: Binding Assay for Human Melanin-Concentrating Hormone (MCH-1) Receptor (radioligand displacement, CHO-K1 membranes); settings: MCH-1 Ki (nM), membranes from CHO-K1 cells expressing human MCH1 receptor; [3H]-labeled radioligand; Ki from IC50 by Cheng Prusoff
Sequence (Q99705 whole entry): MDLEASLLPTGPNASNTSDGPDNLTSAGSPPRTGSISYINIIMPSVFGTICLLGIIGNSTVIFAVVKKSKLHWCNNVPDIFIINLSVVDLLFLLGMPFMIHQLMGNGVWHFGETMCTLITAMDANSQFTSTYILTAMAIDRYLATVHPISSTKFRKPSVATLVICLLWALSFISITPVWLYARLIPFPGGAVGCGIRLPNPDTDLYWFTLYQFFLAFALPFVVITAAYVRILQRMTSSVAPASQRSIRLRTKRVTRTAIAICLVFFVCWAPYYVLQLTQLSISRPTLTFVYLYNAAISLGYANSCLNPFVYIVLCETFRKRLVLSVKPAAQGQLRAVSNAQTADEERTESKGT
Reported values of Ki for individual entries
Metric: Ki (nM)

>>> df
                                   compound                         system_under_test  metric  result_value
0  Cn1c2c(c3ccc(-n4ccc(OCc5ccccc5)cc4=O)cc31)C1CCC(C2)N1 (single isomer, unassigned; enantiomer a) [Example 14]  human MCH-1 receptor (Homo sapiens (Human), UniProt Q99705)      Ki          15.8
1  CC(=O)N1C2CCC1c1c(n(C)c3cc(-n4ccc(OCc5ccc(F)cn5)cc4=O)ccc13)C2 (single isomer, unassigned; enantiomer a) [Example 29]  human MCH-1 receptor (Homo sapiens (Human), UniProt Q99705)      Ki            75
2  Cn1c2c(c3ccc(-n4ccc(-c5ccc(C(F)(F)F)nc5)cc4=O)cc31)C1CCC(C2)N1 (single isomer, unassigned; enantiomer b) [Example 36]  human MCH-1 receptor (Homo sapiens (Human), UniProt Q99705)      Ki           5.3
3  Cl.O=c1cc(OCc2ccccc2)ccn1-c1ccc2c3c([nH]c2c1)CC1CCC3N1 (single isomer, unassigned; enantiomer b) [Example 20]  human MCH-1 receptor (Homo sapiens (Human), UniProt Q99705)      Ki           9.3
4  Cn1c2c(c3ccc(-n4ccc(OCc5ccccc5)cc4=O)cc31)C1CCC(C2)N1 (single isomer, unassigned; enantiomer b) [Example 15]  human MCH-1 receptor (Homo sapiens (Human), UniProt Q99705)      Ki           7.8
5  Cn1c2c(c3ccc(-n4ccc(OCc5ccc(F)cn5)cc4=O)cc31)C1CCC(C2)N1 (single isomer, unassigned; enantiomer b) [Example 24]  human MCH-1 receptor (Homo sapiens (Human), UniProt Q99705)      Ki           7.4
6  Cn1c2c(c3ccc(N4CCN(CCc5ccccc5)CC4=O)cc31)C1CCC(C2)N1 (single isomer, unassigned; enantiomer b) [Example 33]  human MCH-1 receptor (Homo sapiens (Human), UniProt Q99705)      Ki            17
7  CC(=O)N1C2CCC1c1c([nH]c3cc(-n4ccc(OCc5ccccc5)cc4=O)ccc13)C2 (single isomer, unassigned; enantiomer a) [Example 30]  human MCH-1 receptor (Homo sapiens (Human), UniProt Q99705)      Ki            97

###

Reported values of melting point for individual entries
Metric: melting point

>>> df
                                   molecule         metric          result_value
0  Cc1ccc(COc2cnn(-c3ccc4c5c(n(C)c4c3)CC3CCCC5N3)c(=O)c2)cn1.Cl (stereo not shown) [Example 18]  melting point         190 to 200 °C
1  Cl.O=c1cc(OCc2ccccc2)ccn1-c1ccc2c3c([nH]c2c1)CC1CCC3N1 (stereo not shown) [Example 8]  melting point         209 to 214 °C
2  Cl.Cn1c2c(c3ccc(-n4ccc(OCc5ccc(F)cn5)cc4=O)nc31)C1CCCC(C2)N1 (stereo not shown) [Example 40]  melting point         170 to 180 °C
3  CC(=O)N1C2CCC1c1c(n(C)c3cc(-n4ccc(OCc5ccccc5)cc4=O)ccc13)C2 (stereo not shown) [Example 27]  melting point           91 to 96 °C
4  Cl.Cn1c2c(c3ccc(-n4ccc(-c5ccc(C(F)(F)F)nn5)cc4=O)cc31)C1CCC(C2)N1 (stereo not shown) [Example 3]  melting point         235 to 245 °C
5  Cl.Cn1c2c(c3ccc(-n4ccc(-c5ccc(C(F)(F)F)nc5)cc4=O)cc31)C1CCCC(C2)N1 (stereo not shown) [Example 13]  melting point  265 to 274 °C (dec.)
6  Cl.O=c1cc(OCc2ccccc2)ccn1-c1ccc2c3c([nH]c2c1)CC1CCC3N1 (single isomer, unassigned; enantiomer a) [Example 21]  melting point         211 to 212 °C
